- Tested on: Plasmodium falciparum
- method.summary: Antimalarial activity against chloroquine-resistant Plasmodium falciparum Dd2 after 72 hrs by DAPI staining based confocal microplate imaging method
- Assay type: functional, organism-based
- conditions: Dd2, 72 h
value.type: IC50 (nM)

{"columns": ["compound.structure.string", "value.type", "reported"],
 "data": [
  ["CC1=C[C@@H]2c3c(CCN(C)C)c4ccccc4n3[C@@H](c3[nH]c4ccccc4c3CCN(C)C)[C@@H]2C(C)(C)C1", "IC50", 190],
  ["COc1ccc2nc3cc(Cl)ccc3c(Nc3cc(CN4CCCC4)c(O)c(CN4CCCC4)c3)c2n1", "IC50", 140],
  ["CC1=C[C@H]2[C@@H]([C@@H](c3[nH]c4ccccc4c3CCN(C)C)[C@]34CCN(C)[C@]23Nc2ccccc24)C(C)(C)C1", "IC50", 340],
  ["CC1(C)[C@H](Cc2[nH]c3ccccc3c2CC[N+](C)(C)O)O[C@]23OC[C@H](O)[C@H]2OC(=O)[C@]13O.O=C([O-])C(F)(F)F", "IC50", 2700],
  ["CC1(C)C=Cc2c(cc3oc(-c4ccc(O)cc4)cc(=O)c3c2O)O1", "IC50", 2300],
  ["COc1ccc(C[C@H](N)C(=O)N[C@H]2[C@@H](O)[C@H](n3cnc4c(N(C)C)ncnc43)O[C@@H]2CO)cc1", "IC50", 32],
  ["C[C@H]1[C@@H](O)O[C@@H]2O[C@@]3(C)CC[C@H]4[C@H](C)CC[C@@H]1[C@@]24OO3", "IC50", 0.4],
  ["CNCCc1c([C@@H]2[C@@H]3[C@H](C=C(C)CC3(C)C)[C@]34Nc5ccccc5[C@]23CCN4C)[nH]c2ccccc12", "IC50", 220]
]}

---

- System: Plasmodium falciparum
- method.summary: Antimalarial activity against chloroquine-sensitive Plasmodium falciparum 3D7 after 72 hrs by DAPI staining based confocal microplate imaging method
- Type: functional, organism-based
- conditions: 3D7, 72 h

{"columns": ["compound", "IC50 (nM)"],
 "data": [
  ["CC1=C[C@H]2[C@@H]([C@@H](c3[nH]c4ccccc4c3CCN(C)C)[C@]34CCN(C)[C@]23Nc2ccccc24)C(C)(C)C1", 510],
  ["CC1(C)C=Cc2c(cc3oc(-c4ccc(O)cc4)cc(=O)c3c2O)O1", 3400],
  ["CC1=C[C@@H]2c3c(CCN(C)C)c4ccccc4n3[C@@H](c3[nH]c4ccccc4c3CCN(C)C)[C@@H]2C(C)(C)C1", 670],
  ["CC1(C)[C@H](Cc2[nH]c3ccccc3c2CC[N+](C)(C)O)O[C@]23OC[C@H](O)[C@H]2OC(=O)[C@]13O.O=C([O-])C(F)(F)F", 3600],
  ["C[C@H]1[C@H](OC(=O)CCC(=O)O)O[C@@H]2O[C@@]3(C)CC[C@H]4[C@H](C)CC[C@@H]1[C@@]24OO3 [ARTESUNATE]", 1],
  ["C[C@H]1[C@@H](O)O[C@@H]2O[C@@]3(C)CC[C@H]4[C@H](C)CC[C@@H]1[C@@]24OO3 [ARTENIMOL]", 0.3],
  ["CNCCc1c([C@@H]2[C@@H]3[C@H](C=C(C)CC3(C)C)[C@]34Nc5ccccc5[C@]23CCN4C)[nH]c2ccccc12", 310],
  ["CCc1nc(N)nc(N)c1-c1ccc(Cl)cc1 [PYRIMETHAMINE]", 6]
]}

---

- method.summary: Selectivity index, ratio of IC50 for HEK293 cells to IC50 for chloroquine-sensitive Plasmodium falciparum 3D7
- Type: toxicity
- conditions: human, read-out: Ratio IC50
Would you mind labelling by selectivity ratio? At or over 20 is criterion met, under is criterion not met.

{"columns": ["compound", "cat"],
 "data": [
  ["C[C@H]1[C@@H](O)O[C@@H]2O[C@@]3(C)CC[C@H]4[C@H](C)CC[C@@H]1[C@@]24OO3", "criterion met"],
  ["CNCCc1c([C@@H]2[C@@H]3[C@H](C=C(C)CC3(C)C)[C@]34Nc5ccccc5[C@]23CCN4C)[nH]c2ccccc12", "criterion not met"],
  ["COc1ccc2nc3cc(Cl)ccc3c(Nc3cc(CN4CCCC4)c(O)c(CN4CCCC4)c3)c2n1", "criterion met"],
  ["CC1=C[C@@H]2c3c(CCN(C)C)c4ccccc4n3[C@@H](c3[nH]c4ccccc4c3CCN(C)C)[C@@H]2C(C)(C)C1", "criterion not met"],
  ["CCc1nc(N)nc(N)c1-c1ccc(Cl)cc1", "criterion met"],
  ["C[C@H]1[C@H](OC(=O)CCC(=O)O)O[C@@H]2O[C@@]3(C)CC[C@H]4[C@H](C)CC[C@@H]1[C@@]24OO3 [ARTESUNATE]", "criterion met"],
  ["COc1ccc(C[C@H](N)C(=O)N[C@H]2[C@@H](O)[C@H](n3cnc4c(N(C)C)ncnc43)O[C@@H]2CO)cc1", "criterion not met"],
  ["CC1=C[C@H]2[C@@H]([C@@H](c3[nH]c4ccccc4c3CCN(C)C)[C@]34CCN(C)[C@]23Nc2ccccc24)C(C)(C)C1", "criterion not met"]
]}
